Reference for the values: PubChem BioAssay (NCI)

- System: CCRF-CEM leukemia
- assay.explanation: NCI-60 one-dose screen, 48 h
- assay.setup: 10 µM unless noted
This is part of a sample that, as a whole, favours compounds with a hit. Of some 83,000 tested, about 20% had one in any assay. Active and inactive are the calls of the source. How the source made its calls: active means growth percent below 10; inactive means the rest.
// one of active, inactive, no free text

Task: I would be grateful if you could indicate the recorded call for `O=C(Nc1ccc(F)c(Cl)c1)c1n[nH]c(=O)c2ccccc12` .
Result: inactive

Task: I would be grateful if you could indicate the recorded call for `Nc1c(C(=O)Nc2cccc(C(F)(F)F)c2)sc2nc3c(cc12)CCCCCC3` .
Result: inactive

Task: I would be grateful if you could indicate the recorded call for `COc1cc(Cn2c(SCCC(=O)Nc3ccc(F)cc3)nc3ccccc3c2=O)cc(OC)c1OC` .
Result: inactive

Task: I would be grateful if you could indicate the recorded call for CC[C@H](C)[C@@H]1NC(=O)[C@H]([C@@H](C)O)NC(=O)C(Cc2ccccc2)NC(=O)[C@@H]2CCCN2C(=O)C(C(C)C)NC(=O)C(Cc2ccccc2)NC(=O)CNC(=O)[C@@H]2CCCN2C1=O (stereo partly specified) .
Result: inactive

Task: I would be grateful if you could indicate the recorded call for `CC/C=C\C/C=C\C[C@H](O)C/C=C1/C(=O)C=C[C@H]1C/C=C\CCC(=O)OC` .
Result: active

Task: I would be grateful if you could indicate the recorded call for `O=S(=O)(NCCCNc1nccc(-c2c(-c3ccccc3)nc3sccn23)n1)c1ccc(F)cc1` .
Result: inactive

Task: I would be grateful if you could indicate the recorded call for `COc1ccc(OC)c(C(=O)c2oc3ccc(Br)cc3c2N)c1` .
Result: active

Task: I would be grateful if you could indicate the recorded call for `CC(C)C[C@H](NC(=O)[C@H](Cc1ccccc1)n1ccc(N2CCCCC2)cc1=O)B(O)O` .
Result: active

Task: I would be grateful if you could indicate the recorded call for `COc1ccc(NC(=O)CSc2nc3ccccc3c(=O)n2Cc2cc(OC)c(OC)c(OC)c2)cc1` .
Result: inactive
